B1: E3 ubiquitin-protein ligase NEDD4-like, residues 539 to 589; numbered along this chain, Q96PU5 (parent)
chain: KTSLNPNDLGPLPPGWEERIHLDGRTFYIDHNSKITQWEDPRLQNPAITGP

- Variants of: B1
- measurement_protocol: abundance fitness (aPCA) (normalised: wild type 0, dead -1); higher = more abundant; growth selection in yeast, the domain comes from the species named
- experimental_conditions: Homo sapiens
value_type: abundance fitness

1. A47K; -0.204
2. A47F; -0.204
3. P6Q; -0.199
